- assayed.target: T1, human CCR8 (human, UniProt P51685 1-355)
- T1 construct: whole, on cells; construct used for the overexpressing cell lines is not described; also called hCCR8
- T1 sequence (P51685 whole entry): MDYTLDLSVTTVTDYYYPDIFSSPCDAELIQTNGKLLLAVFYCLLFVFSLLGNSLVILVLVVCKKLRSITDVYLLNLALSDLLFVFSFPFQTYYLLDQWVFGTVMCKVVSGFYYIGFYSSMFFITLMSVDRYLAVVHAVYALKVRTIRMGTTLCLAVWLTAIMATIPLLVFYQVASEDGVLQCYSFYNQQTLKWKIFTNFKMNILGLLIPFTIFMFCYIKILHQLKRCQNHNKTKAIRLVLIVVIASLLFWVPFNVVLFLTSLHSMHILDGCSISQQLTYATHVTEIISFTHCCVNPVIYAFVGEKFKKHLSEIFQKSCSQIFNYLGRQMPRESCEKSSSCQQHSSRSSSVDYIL
- test.description: FACS, CHO-K1-hCCR8 cells
measured.quantity: EC50 (nM)
Write it as a number; the unit nM goes unstated.

Task: Could you share which EC50 value was measured for PR004662 (antibody, human IgG1, kappa, V domains shown, PTM site-removed humanized variant of PR004128, IgG1 with DE mutation) VH: EVQLVESGGGLVQPGGSLRLSCAASGFTFSTYAMNWVRQAPGKGLEWVSRIRSKSNNYATYYADSVKDRFTISRDDSKSTLYLQMNSLRAEDTAVYYCVRGKENANYYAMDFWGQGTTVTVSS VL: DIVMTQSPLSLPVTPGEPASISCRSSKSLLHSNAKIYLYWFLQKPGQSPQLLIYRMSNLASGVPDRFSGSGSGTDFTLKISRVEAEDVGVYYCMQHLEYPLTFGQGTKLEIKR ?
Result: 0.681

Task: Could you share which EC50 value was measured for PR004665 (antibody, human IgG1, kappa, V domains shown, PTM site-removed humanized variant of PR004128, IgG1 with DE mutation) VH: EVQLVESGGGLVKPGGSLRLSCAASGFTFSTYAMNWVRQAPGKGLEWVGRIRSKSNNYATYYADSVKDRFTISRDDSKSTLYLQMNSLKTEDTAVYYCVRGKEQGNYYAMDFWGQGTTVTVSS VL: DIVMTQSPLSLPVTLGQPASISCRSSKSLLHSNGKIYLYWFQQRPGQSPRLLIYRMSNLASGVPDRFSGSGSGTDFTLKISRVEAEDVGVYYCMQHLEYPLTFGQGTKLEIKR ?
Result: 0.341

Task: Could you share which EC50 value was measured for PR004667 (antibody, human IgG1, kappa, V domains shown, PTM site-removed humanized variant of PR004128, IgG1 with DE mutation) VH: EVQLVESGGGLVKPGGSLRLSCAASGFTFSTYAMNWVRQAPGKGLEWVGRIRSKSNNYATYYADSVKDRFTISRDDSKSTLYLQMNSLKTEDTAVYYCVRGKEQGNYYAMDFWGQGTTVTVSS VL: DIVMTQSPLSLPVTLGQPASISCRSSKSLLHSNAKIYLYWFQQRPGQSPRLLIYRMSNLASGVPDRFSGSGSGTDFTLKISRVEAEDVGVYYCMQHLEYPLTFGQGTKLEIKR ?
Result: 0.279
